experiment: Measuring pKas of couplers in TRITON X-100 media; assay type: physicochemical; conditions: Table 4; TRITON X-100 media; read-out: pKa
PROPERTY MEASURED: pKa
Please reply with the number alone, leaving off any unit.

The reported pKa of the molecule CCCCCCCCCCCCS(=O)(=O)c1ccc(NC(=O)C(OC(=O)N(c2ccc(/C=C(\C#N)c3nc4cc(C(C)(C)C)ccc4o3)c(C)c2)C2CCCC2)C(=O)c2ccccc2)c(Cl)c1 (centres unmarked) [Coupler Y-3] was 7.8

Reported pKa ( COc1ccc(C(=O)C(OC(=O)N(c2ccc(/C=C(\C#N)c3nc4cc(C(C)(C)C)ccc4o3)c(C)c2)C2CCCC2)C(=O)Nc2ccc([N+](=O)[O-])cc2Cl)cc1 (centres unmarked) [Coupler Y-4] ) = 8.2

* * *

test: Measuring pKas of couplers in TRITON X-100 media; type: physicochemical; settings: Table 3; TRITON X-100 media; read-out: pKa
Assign pKa to each entry below.

Input CCC(C)(C)c1cc(C(C)(C)CC)c2oc(/C(C#N)=C/c3ccc(N(C(=O)OC(C(=O)Nc4cc(CS(=O)(=O)c5ccccc5)ccc4Cl)C(=O)c4ccc(OC)cc4)C4CCCC4)cc3C)nc2c1 (stereo not drawn) [CY-4, reference compound] . Output pKa: 10.6

So for CCCCCCCCCCCCOC(=O)c1ccc(Cl)c(NC(=O)C(OC(=O)N(C)c2ccc(/C=C(\C#N)c3nc4cc(C(C)(C)C)ccc4o3)c(C)c2)C(=O)c2ccc(OC)cc2)c1 (stereo not drawn) [CY-7, reference compound] , the logged pKa turned out to be 9.1

Sure, the documented pKa for CCCCCCCCCCCCCCCCNS(=O)(=O)c1ccc(Cl)c(NC(=O)C(OC(=O)N(C)c2ccc(/C=C(\C#N)c3nc4cc(C(C)(C)C)ccc4o3)c(C)c2)C(=O)c2ccc(OC)cc2)c1 (stereo not drawn) is 8.5

Lab note: measured pKa of CCCCCCCCCCCCOC(=O)c1ccc(Cl)c(NC(=O)C(C(=O)c2ccc(OC)cc2)N2C(=O)C(OCC)N(Cc3ccccc3)C2=O)c1 (stereo not drawn) [CY-1, reference compound] was 5.1

Please fill in: pKa reported for CCCCCCCCCCCCS(=O)(=O)c1ccc(NC(=O)C(OC(=O)N(C)c2ccc(/C=C(\C#N)c3nc4cc(C(C)(C)C)ccc4o3)c(C)c2)C(=O)c2ccccc2)c(Cl)c1 (stereo not drawn) = 7.4

Record CCC(C)(C)c1cc(C(C)(C)CC)c2oc(/C(C#N)=C/c3ccc(N(C(=O)OC(C(=O)Nc4cc(CS(=O)(=O)c5ccc(O)cc5)ccc4Cl)C(=O)c4ccc(OC)cc4)C4CCCC4)cc3C)nc2c1 (stereo not drawn) [CY-5, reference compound] . Reported pKa: 10
